Just for reference, the supplement of paper PMC10567573 is where these values come from.

B1: WEE1 (parent)
chain: FISRTSIPNAASEEGDEDDWASNK

variants of: B1; test: protein stability index of a GFP-peptide fusion (GPS, HEK-293T) (PSI 1-6); higher = more stable; settings: c terminus: a fixed tail appended;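 note: lentivirally expressed fusions sorted by FACS into six bins by GFP to DsRed ratio, PSI derived from sequencing read proportions per bin multiplied by bin number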
# binarize protein stability index: threshold 4 inclusive, high side 1, low side 0

FISRTSIPNAASEEGDEDLWASNK [D19L]: 0
FISRTSIPNAASCEGDEDDWASNK [E13C]: 0
FISRTSIPNPASEEGDEDDWASNK [A10P]: 1
FISRTSIPNAASEEGYEDDWASNK [D16Y]: 0
FISRTSIPNAASEECDEDDWASNK [G15C]: 1
FISRTSIPNAASEEGDEDDWALNK [S22L]: 0
FISRTSIPNAASEEGDEDDAASNK [W20A]: 1
FISRTSIPNAHSEEGDEDDWASNK [A11H]: 1
FISRTSIPNAASEEGDEDDVASNK [W20V]: 1
FISITSIPNAASEEGDEDDWASNK [R4I]: 0
FISRTSIPNACSEEGDEDDWASNK [A11C]: 0
FISRTSSPNAASEEGDEDDWASNK [I7S]: 1
FISRTSIPRAASEEGDEDDWASNK [N9R]: 0
FISRTSIPNAASEEGDEDDWVSNK [A21V]: 0
FISRTSIPNAASEEGDEDDRASNK [W20R]: 1
FISRTSIPNAASEEGDEDDSASNK [W20S]: 1
FISRTSIPNAASEEGDEDDWNSNK [A21N]: 0
FISRTSIPNSASEEGDEDDWASNK [A10S]: 1
FISRTSIPNARSEEGDEDDWASNK [A11R]: 0
FISRTSIPNAASEEGDEDWWASNK [D19W]: 0
FISRTSIPNAWSEEGDEDDWASNK [A11W]: 0
FISRTSIPNAASEEMDEDDWASNK [G15M]: 0
FISRTSIPNAASEEGDEDKWASNK [D19K]: 0
FISRTSIPNAASEAGDEDDWASNK [E14A]: 1
FISRTSIPNWASEEGDEDDWASNK [A10W]: 0
NISRTSIPNAASEEGDEDDWASNK [F1N]: 1
FISRTSIPNMASEEGDEDDWASNK [A10M]: 0
FISRTSFPNAASEEGDEDDWASNK [I7F]: 0
FISRTSIPNAASYEGDEDDWASNK [E13Y]: 0
FISRTSIPNAASEEGDEDDWAMNK [S22M]: 0
FISRTSIPNAASEEGDEDIWASNK [D19I]: 0
FISRTSVPNAASEEGDEDDWASNK [I7V]: 0
FISRTSIPNAASEEDDEDDWASNK [G15D]: 1
FISRTSIPNAASEEGDEDDEASNK [W20E]: 1
FISRTWIPNAASEEGDEDDWASNK [S6W]: 0
FISRTSILNAASEEGDEDDWASNK [P8L]: 0
FISRTSIPNAASEEGDEDDPASNK [W20P]: 1
FISRYSIPNAASEEGDEDDWASNK [T5Y]: 0
FISRTSIPNAASERGDEDDWASNK [E14R]: 0
FISRTSIPNAASEEGDEDDWASNS [K24S]: 1
